system: D(2) dopamine receptor (Rattus norvegicus, UniProt P61169)
Sequence (P61169 whole entry): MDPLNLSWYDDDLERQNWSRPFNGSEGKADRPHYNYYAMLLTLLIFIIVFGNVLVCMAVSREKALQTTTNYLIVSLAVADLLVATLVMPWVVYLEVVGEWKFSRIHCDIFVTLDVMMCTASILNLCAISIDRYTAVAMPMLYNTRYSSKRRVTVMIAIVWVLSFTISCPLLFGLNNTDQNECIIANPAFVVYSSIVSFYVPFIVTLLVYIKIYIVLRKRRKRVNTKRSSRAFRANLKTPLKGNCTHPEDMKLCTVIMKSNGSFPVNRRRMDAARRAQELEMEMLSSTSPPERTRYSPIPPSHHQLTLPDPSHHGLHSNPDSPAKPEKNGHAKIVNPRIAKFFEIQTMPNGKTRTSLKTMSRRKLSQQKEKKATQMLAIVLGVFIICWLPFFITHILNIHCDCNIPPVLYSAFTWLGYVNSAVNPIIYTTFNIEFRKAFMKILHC
assay_explanation: Percent inhibition towards dopamine D2 receptor

cpd_smiles: COc1nsnc1N1CCN(C[C@@H](Cc2cccnc2)NC(=O)C2(C)CCCCC2)CC1
IC50, µM: 3.52

* * *

system: Adrenergic receptor alpha-1 (Rattus norvegicus) (UniProt P15823+P23944+P43140)
assay_explanation: Compound was tested for percent inhibition at Alpha-1 adrenergic receptor in rat at 100 nM concentration

cpd_smiles: CN(C(=O)C1CCCCC1)[C@H](Cc1ccccc1)CN1CCN(c2nsnc2Cl)CC1
quantity_unit: %
inhibition: 0
--
cpd_smiles: O=C(N[C@@H](Cc1ccccc1)CN1CCN(c2nsnc2Cl)CC1)C1CCCCC1
quantity_unit: %
inhibition: 17
--
cpd_smiles: COc1nsnc1N1CCN(C[C@@H](Cc2ccccc2)N(C)C(=O)C2CCCCC2)CC1
quantity_unit: %
inhibition: 0
--
cpd_smiles: COc1nsnc1N1CCN(C[C@@H](Cc2ccccc2)N(C)C(=O)c2ccccc2)CC1
quantity_unit: %
inhibition: 15
